# tested on: Tyrosine-protein kinase Fes/Fps (Homo sapiens);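 further: mean inhibition of FES from the GSK PKIS kinase inhibitor screening set, assayed by Nanosyn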
# test context: at 1 µM
measured endpoint: inhibition (%)
API: value field is a number in %; no unit string.

Here are 6 molecules together with their reported answers.
CC1=C(C(=O)Nc2ccc3[nH]ncc3c2)C(c2ccc(F)cc2)N=C(c2ccc(C(F)(F)F)nc2)N1 (configuration not stated); 2.21
O=C1Nc2ccccc2/C1=C1\CCc2cc(O)ccc21; 6.81
COC(=O)Nc1nc2cc(Oc3ccc(NC(=O)Nc4ccccc4)cc3)ccc2[nH]1; 1.32
Fc1ccc(Nc2nccc(-c3c(-c4ccc(C(F)(F)F)cc4)nn4ncccc34)n2)cc1F; 3.35
O=C(O[C@H]1CN[C@H](C#Cc2cc3ncnc(Nc4ccc5c(ccn5Cc5cc(F)ccc5F)c4)c3s2)C1)N1CCOCC1; 3.52
NS(=O)(=O)c1cccc(N/C=C2\C(=O)Nc3ccccc32)c1; 3.46

Consider the additional molecule presented here.
Form field inhibition, entry NS(=O)(=O)c1ccc(N/N=C2\C(=O)Nc3cccc(CCc4ccncc4)c32)cc1 : -0.42

###

# tested on: Mitogen-activated protein kinase 11 (Homo sapiens)
# test context: at 0.1 µM
Threshold check on inhibition: at or above 5% gives met, strictly below gives not met.

Solved entries (count: 4):
Cn1c(-c2nonc2N)nc2cnccc21; not met
N#Cc1ccc2c(-c3ccnc(NC4CC4)n3)c(-c3ccc(F)cc3)nn2c1; met
NS(=O)(=O)c1ccc(N/N=C2\C(=O)Nc3ccc(C(=O)NCc4ccncc4)cc32)cc1; not met
NS(=O)(=O)c1ccc(N/N=C2\C(=O)Nc3cccc(CCc4ccncc4)c32)cc1; not met

We now examine a further molecule.
Input line: API: above_or_equal(metric=inhibition, cutoff=5%) for item COc1cc(Nc2ncc(-c3ccccc3)o2)cc(OC)c1
Output line: not met

###

Catalogue of molecules with associated inhibition
# tested on: Tyrosine-protein kinase SYK (Homo sapiens)
# test context: at 1 µM
# Description: GSK_PKIS: SYK mean inhibition at 1 uM [Nanosyn]
API: value field is a number in %; no unit string.

Here are 5 molecules together with their reported answers.
COc1cccc(Nc2nccc(-c3cnn4ncccc34)n2)c1; 34.2
CS(=O)(=O)CCNCc1ccoc1-c1ccc2ncnc(Nc3ccc(OCc4ccccc4)cc3)c2c1; 0.23
Fc1cccc(COc2ccc(Nc3ncncc3C#Cc3ccccc3)cc2Cl)c1; -0.97
COc1cc(N2CCN(C(C)C)CC2)ccc1Nc1nc(Nc2cccc(F)c2C(=O)O)c2cc[nH]c2n1; -7.57
Cc1nnc(-c2cccc(-c3ccc(C(=O)NCC4CC4)cc3)c2)o1; -0.72

Consider the additional molecule presented here.
Form field inhibition, entry N#Cc1cccc(Nc2ncc(-c3ccccc3)o2)c1 : -0.14

###

Catalogue of compounds with associated inhibition
# tested on: Cyclin-dependent kinase 2 (Homo sapiens) (UniProt P24941);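 further: mean inhibition of CDK2 bound to cyclin A, from the GSK PKIS kinase inhibitor set screen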
# test context: at 0.1 µM
API: value field is a number in %; no unit string.

CNC(=O)c1cncc(/C=C/c2ccccc2C)c1; 1.87

Form field inhibition, entry Cc1ccc(-c2cc3c(NC(=O)C4CC4)ncnc3o2)cc1 : 1.63

Form field inhibition, entry CN(c1ccc(NC(=O)NCCN2CCOCC2)cc1)c1ccnc(Nc2ccc(CS(C)(=O)=O)cc2)n1 : 1.15

Form field inhibition, entry CS(=O)(=O)Nc1ccc(-c2cc(-c3ccccc3)cc(C(N)=O)c2N)cc1 : 0.21

Form field inhibition, entry c1cnn2ncc(-c3ccnc(NCCCN4CCOCC4)n3)c2c1 : 1.1

Form field inhibition, entry Cc1cc(O)cc(C)c1/C=C/c1cncc(C(=O)OC(C)(C)C)c1 : 1.03

Form field inhibition, entry O=C(O[C@H]1CN[C@H](C#Cc2cc3ncnc(Nc4ccc(OCc5cccc(F)c5)c(Cl)c4)c3s2)C1)N1CCOCC1 : 1.57

Form field inhibition, entry CC1(C)CC(n2cnc(-c3ccc(F)cc3)c2-c2ccnc(N)n2)CC(C)(C)N1 : 1.22

###

# tested on: Serine/threonine-protein kinase SIK2 (Homo sapiens) (UniProt Q9H0K1);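 further: mean inhibition of SNF1LK2 (QIK) kinase activity, from the GSK PKIS screening panel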
# Sequence (Q9H0K1 whole entry, looked up): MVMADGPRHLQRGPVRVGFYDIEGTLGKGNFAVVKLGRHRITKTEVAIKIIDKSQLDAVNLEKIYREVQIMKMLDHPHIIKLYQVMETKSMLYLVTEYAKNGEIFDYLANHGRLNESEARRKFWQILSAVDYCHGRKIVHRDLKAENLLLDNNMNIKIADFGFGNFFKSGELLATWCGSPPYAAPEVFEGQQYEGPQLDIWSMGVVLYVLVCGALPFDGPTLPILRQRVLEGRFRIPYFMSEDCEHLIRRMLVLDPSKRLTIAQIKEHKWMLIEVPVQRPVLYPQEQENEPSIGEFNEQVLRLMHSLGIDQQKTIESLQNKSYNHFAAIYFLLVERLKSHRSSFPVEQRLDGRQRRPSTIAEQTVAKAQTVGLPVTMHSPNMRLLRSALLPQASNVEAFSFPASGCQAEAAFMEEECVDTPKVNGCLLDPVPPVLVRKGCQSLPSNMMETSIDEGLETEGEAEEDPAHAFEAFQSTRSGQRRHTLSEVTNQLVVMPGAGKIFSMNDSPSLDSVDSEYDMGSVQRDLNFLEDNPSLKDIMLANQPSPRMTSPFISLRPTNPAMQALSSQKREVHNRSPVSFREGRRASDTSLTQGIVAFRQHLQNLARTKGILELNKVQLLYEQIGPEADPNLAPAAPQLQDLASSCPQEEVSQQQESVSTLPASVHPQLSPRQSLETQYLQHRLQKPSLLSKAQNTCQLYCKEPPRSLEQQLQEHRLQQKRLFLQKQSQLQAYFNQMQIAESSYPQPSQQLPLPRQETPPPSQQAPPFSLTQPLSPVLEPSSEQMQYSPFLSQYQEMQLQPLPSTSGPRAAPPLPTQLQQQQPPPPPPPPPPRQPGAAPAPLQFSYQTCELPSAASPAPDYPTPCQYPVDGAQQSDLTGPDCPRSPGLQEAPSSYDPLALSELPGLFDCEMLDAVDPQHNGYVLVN
# test context: at 1 µM
Catalogue of compounds with associated inhibition
API: value field is a number in %; no unit string.

Lab entry: Serine/threonine-protein kinase SIK2 (Homo sapiens) (UniProt Q9H0K1) assay, compound CN1CCC(n2cnc(-c3ccc(F)cc3)c2-c2ccnc(NCCO)n2)CC1 , inhibition = 16.6

Lab entry: Serine/threonine-protein kinase SIK2 (Homo sapiens) (UniProt Q9H0K1) assay, compound COc1c(C(N)=O)cc(-c2ccc(Cl)cc2)cc1-c1ccc(S(N)(=O)=O)cc1 , inhibition = 6.93

Lab entry: Serine/threonine-protein kinase SIK2 (Homo sapiens) (UniProt Q9H0K1) assay, compound FC(F)(F)CNc1nccc(-c2cnn3ncccc23)n1 , inhibition = 0.27

Lab entry: Serine/threonine-protein kinase SIK2 (Homo sapiens) (UniProt Q9H0K1) assay, compound COc1ccc(Nc2ncc(-c3ccccc3)o2)cc1OC , inhibition = 39

Lab entry: Serine/threonine-protein kinase SIK2 (Homo sapiens) (UniProt Q9H0K1) assay, compound CCS(=O)(=O)c1ccc(OC)c(Nc2ncc(-c3cccc(C(C)=O)c3)o2)c1 , inhibition = 14

Lab entry: Serine/threonine-protein kinase SIK2 (Homo sapiens) (UniProt Q9H0K1) assay, compound Cc1ccc(-c2cc3c(NC(=O)C4CC4)ncnc3o2)cc1 , inhibition = 3.33

Lab entry: Serine/threonine-protein kinase SIK2 (Homo sapiens) (UniProt Q9H0K1) assay, compound COc1cc2c(cc1Nc1nc(Nc3cccc(F)c3C(N)=O)c3cc[nH]c3n1)N(C(=O)CN1CCN(C(C)C)CC1)CC2 , inhibition = 0.18

Lab entry: Serine/threonine-protein kinase SIK2 (Homo sapiens) (UniProt Q9H0K1) assay, compound CS(=O)(=O)CCNCc1ccoc1-c1ccc2ncnc(Nc3ccc(OCc4ccccc4)cc3)c2c1 , inhibition = -0.59

Lab entry: Serine/threonine-protein kinase SIK2 (Homo sapiens) (UniProt Q9H0K1) assay, compound CS(=O)(=O)Nc1ccc(-c2cc(-c3ccccc3)cc(C(N)=O)c2N)cc1 , inhibition = 3.58

Lab entry: Serine/threonine-protein kinase SIK2 (Homo sapiens) (UniProt Q9H0K1) assay, compound COc1cc(Nc2ncc(-c3ccccc3)o2)cc(OC)c1 , inhibition = 33.8

###

Catalogue of molecules with associated inhibition
# tested on: Cyclin-dependent kinase 4 (Homo sapiens);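 further: enzyme tested as the CDK4–cyclin D complex, with the value reported as mean percent inhibition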
# test context: at 1 µM
API: value field is a number in %; no unit string.

Here are 8 molecules together with their reported answers.
CCN1CCC(C(=O)Nc2n[nH]c3nnc(-c4cccc(F)c4F)cc23)CC1; 36.6
CC1=C(C(=O)Nc2ccc3[nH]ncc3c2)C(c2ccc(F)cc2)N=C(c2ccc(C(F)(F)F)nc2)N1 (centres undefined); 2.07
Cc1ccc(-c2cc3c(NC(=O)C4CC4)ncnc3o2)cc1; 4.97
CNC(=O)c1ncccc1Nc1nc(Nc2cc3c(cc2OC)CCCN3C(=O)CN(C)C)nc2[nH]ccc12; 11.4
O=C(O[C@H]1CN[C@H](C#Cc2cc3ncnc(Nc4ccc5c(ccn5Cc5cc(F)ccc5F)c4)c3s2)C1)N1CCOCC1; 1.93
COc1ccc(Nc2ncc(-c3ccccc3)o2)cc1OC; 14
CS(=O)(=O)CCNCc1ccc(-c2ccc3ncnc(Nc4ccc(OCc5ccccc5)cc4)c3c2)o1; 2.98
CNC(=O)c1cncc(/C=C/c2ccccc2C)c1; 7.47

Form field inhibition, entry COc1c(C(N)=O)cc(-c2ccc(Cl)cc2)cc1-c1ccc(S(N)(=O)=O)cc1 : 3.06

###

Catalogue of compounds with associated inhibition
# tested on: RAC-beta serine/threonine-protein kinase (Homo sapiens);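 further: reported figure is the mean percent inhibition of AKT2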
# test context: at 0.1 µM
Your answer should be a number followed by the unit of measure.

Here are 3 compounds together with their reported answers.
CCOc1ccc2c(-c3ccnc(Nc4cc(OC)cc(C(F)(F)F)c4)n3)cnn2n1; 0.01%
CCS(=O)(=O)c1ccc(OC)c(Nc2ncc(-c3cccc(F)c3)o2)c1; 0.44%
NS(=O)(=O)c1ccc(N/N=C2\C(=O)Nc3cccc(CCc4ccncc4)c32)cc1; -0.35%

Consider the additional compound presented here.
Form field inhibition, entry CN1CCC(n2cnc(-c3ccc(F)cc3)c2-c2ccnc(NCCO)n2)CC1 : 1.3%

###

# tested on: Mitogen-activated protein kinase 11 (Homo sapiens) (UniProt Q15759);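 further: reported values are averaged (mean) percent inhibition of p38beta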
# Sequence (Q15759 whole entry): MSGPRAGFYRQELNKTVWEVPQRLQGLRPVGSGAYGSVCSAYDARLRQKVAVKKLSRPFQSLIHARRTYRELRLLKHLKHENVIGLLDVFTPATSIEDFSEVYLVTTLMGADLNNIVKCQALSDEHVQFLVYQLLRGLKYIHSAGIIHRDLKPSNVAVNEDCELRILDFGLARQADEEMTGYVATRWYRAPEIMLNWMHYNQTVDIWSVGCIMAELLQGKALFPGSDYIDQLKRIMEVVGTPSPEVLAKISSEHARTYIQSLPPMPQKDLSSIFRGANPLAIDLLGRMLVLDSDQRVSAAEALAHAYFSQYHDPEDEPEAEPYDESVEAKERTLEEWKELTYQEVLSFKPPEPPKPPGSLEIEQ
# test context: at 0.1 µM
measured endpoint: inhibition (%)
API: value field is a number in %; no unit string.

Here are 2 molecules together with their reported answers.
CCOc1ccc2c(-c3ccnc(Nc4cc(OC)cc(C(F)(F)F)c4)n3)cnn2n1; -0.59
Fc1cccc(COc2ccc(Nc3ncncc3C#Cc3ccccc3)cc2Cl)c1; 3.77

Consider the additional molecule presented here.
Form field inhibition, entry COc1cccc(Nc2nccc(-c3cnn4ncccc34)n2)c1 : 4.7

###

Catalogue of molecules with associated inhibition
# tested on: Tyrosine-protein kinase receptor TYRO3 (Homo sapiens) (UniProt Q06418)
# Sequence (Q06418 whole entry): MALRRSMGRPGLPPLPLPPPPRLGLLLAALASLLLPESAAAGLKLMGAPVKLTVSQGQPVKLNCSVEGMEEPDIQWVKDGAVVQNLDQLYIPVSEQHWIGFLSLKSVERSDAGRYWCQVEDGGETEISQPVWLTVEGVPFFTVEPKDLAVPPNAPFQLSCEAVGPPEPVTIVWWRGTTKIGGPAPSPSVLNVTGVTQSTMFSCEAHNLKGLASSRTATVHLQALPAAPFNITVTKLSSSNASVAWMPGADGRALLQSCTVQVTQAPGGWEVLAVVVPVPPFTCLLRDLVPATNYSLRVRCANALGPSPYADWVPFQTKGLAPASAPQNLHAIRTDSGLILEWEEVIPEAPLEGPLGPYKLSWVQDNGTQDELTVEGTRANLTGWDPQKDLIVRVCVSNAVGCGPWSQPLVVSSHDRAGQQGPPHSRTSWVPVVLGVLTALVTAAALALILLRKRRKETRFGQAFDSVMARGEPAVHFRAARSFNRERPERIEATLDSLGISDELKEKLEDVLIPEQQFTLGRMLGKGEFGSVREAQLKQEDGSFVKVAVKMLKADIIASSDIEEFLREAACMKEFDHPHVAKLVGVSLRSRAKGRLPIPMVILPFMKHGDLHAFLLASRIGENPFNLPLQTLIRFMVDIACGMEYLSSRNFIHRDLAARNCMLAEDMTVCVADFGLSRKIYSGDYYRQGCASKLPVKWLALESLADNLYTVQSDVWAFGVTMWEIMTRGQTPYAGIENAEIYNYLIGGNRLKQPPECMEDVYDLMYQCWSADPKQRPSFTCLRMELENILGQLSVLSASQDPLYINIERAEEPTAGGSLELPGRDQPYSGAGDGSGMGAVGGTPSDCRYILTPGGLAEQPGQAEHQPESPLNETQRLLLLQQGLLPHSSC
# test context: at 1 µM
# Description: GSK_PKIS: TYRO3 mean inhibition at 1 uM [Nanosyn]
Your answer should be a number followed by the unit of measure.

Here are 2 molecules together with their reported answers.
NS(=O)(=O)c1cccc(N/C=C2\C(=O)Nc3ccccc32)c1; 8.3%
COc1c(C(N)=O)cc(-c2ccc(Cl)cc2)cc1-c1ccc(S(N)(=O)=O)cc1; 2.96%

Consider the additional molecule presented here.
Form field inhibition, entry N#Cc1ccc2c(-c3ccnc(NC4CC4)n3)c(-c3ccc(F)cc3)nn2c1 : 0.69%
